Listing of recorded CC50 by entry.
# measurement notes: Functional assay to measure dose dependent changes in cell viability from drug treatment in Vero E6 miRFP670 cells (cotreated with P-gp inhibitor, CP100356) that are infected with Dengue virus type 2 New Guinea C. […] Cytotoxicity is reported via via analysis of DAPI count using high-content imager. The assay has been performed by KU Leuven.
# Format: toxicity, cell-based, Vero C1008
# assay conditions: chlorocebus sabaeus, with CP100356 (P-gp inhibitor, concentration not stated); p-gp concentration 500 nM
Hi! Could you send only the number? It should be in µM, unit omitted.

[[record]]
smiles_entry = "O=C(Nc1cc(Cl)cc(-c2cnn(Cc3ccc(C(=O)O)cc3)c2)c1)OCc1ccccc1"
property_measured = "CC50"
unit_symbol = "µM"
experimental_value = 24

[[record]]
smiles_entry = "CC(C)(C)NC(=O)[C@H](Nc1cccc(-c2nn[nH]n2)c1)c1cc(Cl)cc(NC(=O)OCc2ccccc2)c1"
property_measured = "CC50"
unit_symbol = "µM"
experimental_value = 2.78

[[record]]
smiles_entry = "NCc1cc(NC(=O)c2cc(Cl)cc(NC(=O)OCc3ccccc3)c2)cc([C@@H]2C[C@H]2C(=O)O)c1"
property_measured = "CC50"
unit_symbol = "µM"
experimental_value = 21.8


### Prompt Please report the measured CC50 for CNC(=O)c1cc(Cl)c(F)cc1NS(=O)(=O)c1ccc(Oc2ccccc2Cl)cc1
### Response 5.65

### Prompt Please report the measured CC50 for NCc1cccc(CCc2cc(Cl)cc(NC(=O)OCc3ccccc3)c2)c1
### Response 11.9

### Prompt Please report the measured CC50 for O=C(Nc1ccc2c(c1)CNC2)c1cccc2[nH]c(=O)[nH]c12
### Response 33.3

### Prompt Please report the measured CC50 for O=C(Nc1ccc2c(c1)CNC2)c1cc(Cl)cc(N2CCCC2)c1
### Response 13.2

### Prompt Please report the measured CC50 for O=C(Nc1ccc2c(c1)CNC2)c1cc(Cl)cc2c1NCCC2
### Response 24.8
